Biological target: T1, human CD28, full-length, expressed on transfected Expi293 cells (human, UniProt P10747 19-220)
T1 construct: whole, on cells
Assay: flow cytometry, 100 nM, Expi293 cells with human CD28
readout.type: MFI (MFI)
Reply numerically in MFI, unit not repeated.

>>> experimental_value("variant ICOSL IgV-Fc fusion N52A/N57Y/Q100A (Fc fusion) DTQEKEVRAMVGSDVELSCACPEGSRFDLNDVYVYWQTSESKTVVTYHIPQASSLEYVDSRYRNRALMSPAGMLRGDFSLRLFNVTPQDEQKFHCLVLSASLGFQEVLSVEVTLHVAANFSVGSGGGGSEPKSSDKTHTCPPCPAPEAEGAPSVFLFPPKPKDTLMISRTPEVTCVVVDVSHEDPEVKFNWYVDGVEVHNAKTKPREEQYNSTYRVVSVLTVLHQDWLNGKEYKCKVSNKALPAPIEKTISKAKGQPREPQVYTLPPSREEMTKNQVSLTCLVKGFYPSDIAVEWESNGQPENNYKTTPPVLDSDGSFFLYSKLTVDKSRWQQGNVFSCSVMHEALHNHYTQKSLSLSPG")
147000

Turning to the following binder.
Quick one: MFI for variant ICOSL ECD-Fc fusion, full length N52H/N57Y/Q100R/F172S (Fc fusion, not shown: a dimerising Fc or GST) DTQEKEVRAMVGSDVELSCACPEGSRFDLNDVYVYWQTSESKTVVTYHIPQHSSLEYVDSRYRNRALMSPAGMLRGDFSLRLFNVTPQDEQKFHCLVLSRSLGFQEVLSVEVTLHVAANFSVPVVSAPHSPSQDELTFTCTSINGYPRPNVYWINKTDNSLLDQALQNDTVSLNMRGLYDVVSVLRIARTPSVNIGCCIENVLLQQNLTVGSQTGNDIGERDKITENPVSTGEKNAAT ?
138000
